VALUE TYPE: MDR1-MDCK efflux ratio

Worked cases, MDR1-MDCK efflux ratio given:
MOLECULE | MDR1-MDCK efflux ratio
O=C1/C(=C2/CCCCCN2)C(Nc2ccccc2)=NN1c1ccccc1 | 0.737
Cc1oc(C)c(C(=O)NCC#Cc2ccccc2)c1C | 0.446
O=C([C@@H]1CCCN1C(=O)NC(c1ccccc1)c1ccccc1)N1CCCCC1 | 26.9

[P] Cc1ccc(F)cc1S(=O)(=O)Nc1ccc(C(=O)N2CCCC2)cc1
[Q] COc1cc(C)cc(OC)c1-c1ccc(-c2nn[nH]n2)cc1
[R] Cc1ncsc1C(=O)N1CCCCC1c1nc(N(C)C)ncc1-c1cccc(Cl)c1 (stereo not drawn)
[S] CNC(=O)C1CCN(Cc2ncc(-c3ccc(F)cc3)o2)CC1
Endpoint returns the given molecules ordered by ascending MDR1-MDCK efflux ratio. Reply with the item labels sorted in the order that was asked for.
R, Q, S, P

[A] O=C(c1ccc2[nH]ccc2c1)N1CCCC(c2cccc(-c3ccc(F)cc3)n2)C1 (stereo not drawn)
[B] O=C(CC/C=C/c1ccccc1)Nc1ccccc1N1CCOC1=O
[C] Cc1cc(C)n(-c2ccc(C(=O)NCc3cccnc3)cc2)n1
[D] CN(CC(=O)N(C)C)Cc1cc(C#N)ccc1F
Endpoint returns the given molecules ordered by ascending MDR1-MDCK efflux ratio. Reply with the item labels sorted in the order that was asked for.
D, A, B, C
(D: 0.713, A: 1.6, B: 2.45, C: 4.95)

[a] COC(=O)c1c(C)[nH]c(C(=O)OCC(=O)N(C)Cc2cccs2)c1C
[b] CC1CCN(CCNC(=O)c2ccncc2)CC1
Hi, I'm comparing two records. Which one has the lower MDR1-MDCK efflux ratio, a or b ? Use the label to indicate which entry you chose.
a
(a: 1.47, b: 2.3)

[a] Cc1nc(-c2ccccc2)c(C(=O)Nc2ccccc2)s1
[b] CC(=O)N1CCN(C(=O)c2ccc(-c3ccc(F)cc3)cc2F)CC1
[c] Cc1cc(C(=O)NCC2CCC3(CC2)OCCO3)[nH]n1
[d] Cc1nc(N(C)C)cc(C2(C)CCNCC2)n1
Endpoint returns the given molecules ordered by ascending MDR1-MDCK efflux ratio. Reply with the item labels sorted in the order that was asked for.
a, b, c, d
(a: 0.571, b: 1.47, c: 4.03, d: 17.7)

[1] O=C(c1ccc(-n2cccn2)nc1)N1CCN(c2ccccc2O)CC1
[2] CC1(C)O[C@@](C)([C@H]2CC3(CCNCC3)CO2)CC[C@@H]1O
[3] CC(C)(C)c1csc(CCNC(=O)N2CCSCC2)n1
Endpoint returns the given molecules ordered by ascending MDR1-MDCK efflux ratio. Reply with the item labels sorted in the order that was asked for.
2, 1, 3
(2: 0.443, 1: 0.747, 3: 1.14)

[A] O=C(Nc1ccccc1)N1CCCc2cnc(N3CCOCC3)nc21
[B] O=c1cc2c(n[nH]1)-c1cnc(N3CCCCC3)nc1CC2
[C] O=C(CCc1cn[nH]c1)NCCCn1cc(Cl)cn1
[D] OCc1ccc(Cn2cc(-c3cc(F)ccc3-n3cccn3)nn2)cc1
Ranking field: MDR1-MDCK efflux ratio; order: falling. Reply with the item labels sorted in the order that was asked for.
C, D, A, B
(C: 18.1, D: 2.09, A: 1.22, B: 0.565)

[A] O=C(CCNc1ncccn1)N1CCc2ccccc2C1
[B] COc1ccc(-c2csc(CC(N)=O)n2)cc1
[C] CCOC(=O)c1c(C)[nH]c(CN(Cc2ccccc2)C(=O)c2ccccc2Cl)c1C
[D] Cc1[nH]nc(CCC(=O)NCCCOC2CCCC2)c1C
Endpoint returns the given molecules ordered by ascending MDR1-MDCK efflux ratio. Reply with the item labels sorted in the order that was asked for.
B, A, C, D
(B: 0.751, A: 1.23, C: 2.14, D: 14.4)

[1] c1ccc(Cc2nnc(NC3CCOCC3)s2)cc1
[2] Cc1cc(C(=O)Nc2cccc3ncccc23)on1
[3] CCOC(=O)c1ccc(NC(=O)Cn2cnc3ccccc32)cc1
Endpoint returns the given molecules ordered by ascending MDR1-MDCK efflux ratio. Reply with the item labels sorted in the order that was asked for.
2, 1, 3
(2: 0.559, 1: 1.23, 3: 4.28)
